Test: Half life in dog after 1 mg/kg intravenous dose
Conditions: in vivo

| chem_smiles | half-life [h] |
| --- | --- |
| Cc1nc2cc(OC[C@H](O)CN3CCN(Cc4noc(-c5ccc(C(F)(F)F)cc5)n4)CC3)ccc2s1 | 13.6 |

###

Test: Oral bioavailability in rat (dose 2 mg/kg)
Type: ADME, organism-based
Conditions: in vivo

| chem_smiles | bioavailability [%] |
| --- | --- |
| Cc1nc2cc(OC[C@H](O)CN3CCN(Cc4noc(-c5ccc(C(F)(F)F)cc5)n4)C[C@@H]3C)ccc2s1 | 29 |
| Cc1nc2cc(OC[C@H](O)CN3CCN(Cc4noc(-c5ccc(C(F)(F)F)cc5)n4)CC3)ccc2s1 | 38 |
